# Tested on: MDA-MB-435
# assayProtocol: NCI tumour cell line growth inhibition, 48 h
observationType: TGI (µM)
Answers are plain numbers, in µM.

| molecule | systemUnderTest | TGI [µM] |
| --- | --- | --- |
| COc1ccc2c(c1)/C(=C/c1cc(OC)c(OC)c(OC)c1)C(=O)N2 | MDA-MB-435 | 0.253 |

For each of the items listed, what is its TGI?
1. O=c1cc(/C=C/c2ccccc2)[nH]c2cc3c(cc12)OCO3
2. Cc1ccc(-c2nc3nc(-c4ccc(F)cc4)nc(N4CCCNCC4)c3o2)cc1
3. Cc1ccc(NC(=O)c2cc(S(=O)(=O)N3C(=O)NC(=O)NS3(=O)=O)c(S)cc2Cl)cc1
4. O=C1NCN(c2ccccc2)C12CCN(CCCN1CCN(CCOC(c3ccc(F)cc3)c3ccc(F)cc3)CC1)CC2
5. COc1ccc(-c2cc(-c3ccccc3)[nH]c(=S)c2C#N)cc1
6. O=c1c(F)cn(Cc2ccccc2CCl)c(=O)n1Cc1ccccc1CCl
7. O=C(c1ccncc1)C1C(=O)c2ccccc2C1C1(O)c2ccccc2CC1C(O)c1ccncc1 (stereo not given)

4.29
3.13
35.7
3.26
42.8
3.4
47.9

---

Would you kindly list TGI for each of these compounds?
# Test system: LOX IMVI melanoma
# assayProtocol: NCI tumour cell line growth inhibition, 48 h
Numbers only, in µM.

# annotated cases, reported TGI shown
| compound | systemUnderTest | TGI / µM |
| --- | --- | --- |
| COCCOCCOC1=CC(=O)c2c(O)ccc(O)c2C1=O | LOX IMVI melanoma | 3.11 |
| CN(C)CC1CCC(CN(C)C)C1=O (stereo unspecified) | LOX IMVI melanoma | 14.4 |

Next up:
Query COC1=C(C)C(=O)c2c(c(COC(N)=O)c3n2CC(OC(C)=O)C3OC(C)=O)C1=O (stereo unspecified) on LOX IMVI melanoma; TGI returned: 1.06

---

# Test system: BT-549 breast
# assayProtocol: NCI tumour cell line growth inhibition, 48 h
observationType: TGI (µM)
Give bare numbers, in µM.

| inputSmiles | unitAnnotation | measurement |
| --- | --- | --- |
| CCNC(=O)c1noc(-c2cc(C(C)C)c(O)cc2O)c1-c1ccc(CN2CCOCC2)cc1 | µM | 30.4 |
| Cc1ccc(-c2nc3nc(-c4ccc(F)cc4)nc(N4CCCNCC4)c3o2)cc1 | µM | 3.37 |

Just so you know, measured TGI for O=S(=O)(CCCl)c1ccc(Cl)cc1 came out at 12.6

---

# Tested on: SK-MEL-5 melanoma
# assayProtocol: NCI tumour cell line growth inhibition, 48 h
Exercise: for every item that follows, state its recorded TGI.

Worked cases, TGI given:
| molecule | measurement |
| --- | --- |
| Nc1ccc(/C=C/C(=O)NCc2cc3cc(-c4ccc(C(=O)N5CCC(F)(F)CC5)cc4)cc(-c4ccc(F)cc4)c3o2)cn1 | > 100 µM |
| CC(=O)O[C@H]1CCc2c(cc(N)c3c2C(=O)C[C@]2(C)C([C@H](C)CCCC(C)C)CCC32C)C1(C)C (stereo not given in full) | > 100 µM |
| NC(=O)N/N=C1\CC2C3CC4C2C4C13 (stereo not given) | > 100 µM |

Give me TGI for each of these molecules, listed below.
1. OCc1ccc2c(c1)CC1(Cc3ccc(/C=N/O)cc3C1)C2 (stereo not given)
2. Cn1c2ccccc2c(=O)c2c(O)cc3c(c21)C=CC1(CCCCC1)O3

["8.25 µM", "> 10 µM"]
